System: SK-MEL-2 melanoma
Test: NCI-60 one-dose screen, 48 h
Conditions: 10 µM unless noted
Compounds without any hit were thinned out: in the full panel of roughly 83,000, 20% have a hit. Active and inactive are the calls of the source. How the source made its calls: active means growth percent below 10; inactive means the rest.
Possible outcomes: yes for active, no for inactive

{"COMPOUND": "COC(=O)/C=C/c1cc(OC(C)=O)c2c(c1)C(C(=O)OC)C(c1ccc(OC(C)=O)c(OC(C)=O)c1)O2 (configuration not stated)", "GROUP": "no"}
{"COMPOUND": "N#CCNc1ccc(C(=O)O)cc1", "GROUP": "no"}
{"COMPOUND": "N#C/C(=C/c1ccc(O)c([N+](=O)[O-])c1)c1nc(-c2ccc([N+](=O)[O-])cc2)cs1", "GROUP": "no"}
{"COMPOUND": "C=C1C(=O)O[C@H]2[C@H]1CC/C(C=Nc1c(N)cc(F)cc1Br)=C\\CC[C@@]1(C)O[C@@H]21", "GROUP": "no"}
{"COMPOUND": "CCO/C=N/S(=O)(=O)c1cc2c(cc1Cl)NC=NS2(=O)=O", "GROUP": "no"}
{"COMPOUND": "COc1ccc2c(c1)OC13Oc4cc(OC)ccc4C=C1CCCCC3=C2", "GROUP": "no"}
{"COMPOUND": "C=C(C)[C@@H]1CC[C@]2(C(=O)O)CC[C@]3(C)[C@H](CC[C@@H]4[C@@]5(C)C[C@@H](CC#Cc6ccccc6)C(=O)C(C)(C)[C@@H]5CC[C@]43C)[C@@H]12", "GROUP": "no"}
{"COMPOUND": "O=C(CCCCCCCCC(=O)Nc1cccc(C2=NCCN2)c1)Nc1cccc(C2=NCCN2)c1", "GROUP": "no"}
{"COMPOUND": "Cc1nn(-c2ccc(-c3ccc(OC(F)(F)F)cc3)cc2)c2nc(-c3ccccc3)nc(N)c12", "GROUP": "no"}
{"COMPOUND": "COc1ccc(-c2[nH]c3ccc(OC)cc3c2C=C(C#N)C#N)cc1", "GROUP": "no"}
{"COMPOUND": "Nc1c(C(=O)Nc2cccc3ccccc23)sc2nc3c(cc12)CCCCCC3", "GROUP": "yes"}
{"COMPOUND": "Nc1cc(N)c(S(=O)(=O)O)cc1N=Nc1cc([N+](=O)[O-])ccc1O", "GROUP": "no"}
{"COMPOUND": "[2H]c1cc2c(c([2H])c1F)/C(=C/c1[nH]c(C)c(C(=O)NCCN(CC)CC)c1C)C(=O)N2", "GROUP": "no"}
{"COMPOUND": "O=C1NC(SCc2ccc(F)cc2)=N/C1=C/c1cccc(OCc2ccc(Cl)cc2)c1", "GROUP": "no"}
{"COMPOUND": "O=CN1N=C(c2ccc(Cl)cc2)CC1c1cccc(Nc2ccnc3cc(C(F)(F)F)ccc23)c1 (configuration not stated)", "GROUP": "no"}
{"COMPOUND": "COc1cccc(NC(=O)Nc2ccc(Nc3ncnc4[nH]c(C)c(C)c34)cc2)c1", "GROUP": "no"}
{"COMPOUND": "C=C1C(=O)O[C@H]2[C@H]1CC/C(COC(=O)c1cccnc1)=C\\CC[C@@]1(C)O[C@@H]21", "GROUP": "no"}

###

Tested on: NCI-H522 lung
Assay: NCI-60 one-dose screen, 48 h (100 = growth as untreated, 0 = no growth, -100 = all killed)
Conditions: 10 µM unless noted
Compounds without any hit were thinned out: in the full panel of roughly 83,000, 20% have a hit.
Decide by growth: equal to or exceeding 10% means MET, less means NOT MET.

{"COMPOUND": "Cc1ccc(CS/C(=C\\c2ccc([N+](=O)[O-])cc2)C(=O)c2ccc(F)cc2)cc1", "ASSAYED_SYSTEM": "NCI-H522 lung", "GROUP": "NOT MET"}
{"COMPOUND": "CC(C)Cc1cc(CNC(=O)C2[C@H]3CN(C(=O)c4ccccc4)C[C@@H]23)nn1-c1ccccc1 (stereo not given in full)", "ASSAYED_SYSTEM": "NCI-H522 lung", "GROUP": "MET"}
{"COMPOUND": "COc1ccc(C(=S)c2cc(OC)c(OC)c(OC)c2)cc1OC(=O)CCl", "ASSAYED_SYSTEM": "NCI-H522 lung", "GROUP": "MET"}
{"COMPOUND": "Cc1cc(NC(=O)CNc2nc(Oc3ccc(F)cc3)nc(-c3ccc(F)cc3)n2)ccc1Cl", "ASSAYED_SYSTEM": "NCI-H522 lung", "GROUP": "MET"}
{"COMPOUND": "COc1ccc2nc3c(n2c1)C(=O)C(=O)c1ccccc1-3", "ASSAYED_SYSTEM": "NCI-H522 lung", "GROUP": "NOT MET"}

###

Tested on: U251 CNS
Experiment: NCI-60 one-dose screen, 48 h (100 = growth as untreated, 0 = no growth, -100 = all killed)
Conditions: 10 µM unless noted
This is part of a sample that, as a whole, favours compounds with a hit. Of some 83,000 tested, about 20% had one in any assay. Activity calls are given as the source filed them. The calls were made as follows: active = growth percent below 10; inactive = the rest.
MEASURE: growth

{"COMPOUND": "CC(=O)OCC1OC(OC2C(COC(C)=O)OC(OCCC[S-])C(OC(C)=O)C2OC(C)=O)C(OC(C)=O)C(OC(C)=O)C1OC(C)=O.[Au+].c1ccc(CN2[CH-]N(Cc3ccccc3)C(c3ccccc3)=C2c2ccccc2)cc1 (stereo unspecified)", "MEASURE": "growth", "READOUT_VALUE": "5.17% (active)"}
{"COMPOUND": "c1ccc(Sc2ncccn2)nc1", "MEASURE": "growth", "READOUT_VALUE": "104% (inactive)"}
{"COMPOUND": "CO[C@@]12C=C[C@@]34CCC(=O)N3c3ccccc3[C@@H](O1)C4C2", "MEASURE": "growth", "READOUT_VALUE": "99.7% (inactive)"}
{"COMPOUND": "COc1ccc(/C=C/C(=O)Nc2ncnc3nc[nH]c23)cc1", "MEASURE": "growth", "READOUT_VALUE": "99.4% (inactive)"}
{"COMPOUND": "O=C(CCCC(=O)Nc1ccc(-n2nnc3cc(Cl)c(Cl)cc32)cc1)Nc1ccc(-n2nnc3cc(Cl)c(Cl)cc32)cc1", "MEASURE": "growth", "READOUT_VALUE": "28.7% (inactive)"}
{"COMPOUND": "C1=CC2=CC=C3C=CC=C4C(c5nc6c7ccccc7c7ccccc7c6[nH]5)=CC(=C1)C2C34 (stereo unspecified)", "MEASURE": "growth", "READOUT_VALUE": "104% (inactive)"}
{"COMPOUND": "C#C[C@@]1(O)[C@@H](CO)O[C@@H](n2cc(Cl)c3c(N)ncnc32)[C@@H]1O", "MEASURE": "growth", "READOUT_VALUE": "-6.87% (active)"}
{"COMPOUND": "CS(=O)(=O)O[C@@H]1C(=O)N(c2cc3c4ccccc4ccc3c3ccccc23)[C@H]1c1ccc(F)cn1", "MEASURE": "growth", "READOUT_VALUE": "29.5% (inactive)"}
{"COMPOUND": "COc1ccc(NC(=O)c2sc3nc(C)c(C(C)=O)cc3c2N)cc1", "MEASURE": "growth", "READOUT_VALUE": "95% (inactive)"}
{"COMPOUND": "N#Cc1ccc(N2Cc3cc(Cl)ccc3OC3=C2C(=O)N(Cc2ccc(F)cc2)C3=O)cc1", "MEASURE": "growth", "READOUT_VALUE": "-61.1% (active)"}
{"COMPOUND": "CCCCc1n(Cc2ccc3ccccc3n2)cc[n+]1Cc1ccc2ccccc2c1", "MEASURE": "growth", "READOUT_VALUE": "5.73% (active)"}

###

Tested on: HCT-116 colon
Assay: NCI-60 one-dose screen, 48 h
Settings: 10 µM unless noted
Compounds without any hit were thinned out: in the full panel of roughly 83,000, 20% have a hit. Calls of active or inactive are those of the source. How the source made its calls: active means growth percent below 10; inactive means the rest.
Possible outcomes: active, inactive

{"COMPOUND": "N#Cc1c(-c2ccc(Cl)cc2)cc(-c2cc3ccccc3o2)nc1SCC(=O)c1ccc(Cl)cc1", "GROUP": "inactive"}
{"COMPOUND": "C=C1C(=O)O[C@H]2[C@H]1CC/C(COC(=O)Nc1nc3ccccc3[nH]1)=C\\CC[C@@]1(C)O[C@@H]21", "GROUP": "inactive"}
{"COMPOUND": "CCCNc1nc(C)[nH]c(=O)c1S", "GROUP": "inactive"}
{"COMPOUND": "C=C1C(=O)O[C@H]2[C@H]1CC/C(COC(=O)CCCCCCCC(=O)OC/C1=C/CC[C@@]3(C)O[C@H]3[C@H]3OC(=O)C(=C)[C@@H]3CC1)=C\\CC[C@@]1(C)O[C@@H]21", "GROUP": "active"}
{"COMPOUND": "Cc1cc(C)n(-c2nc(-c3cccs3)c(C#N)c(=O)[nH]2)n1", "GROUP": "inactive"}
{"COMPOUND": "COc1ccc(C(=O)c2cc(OC)c(OC)c(OC)c2)cc1OC(=O)C(Cl)(Cl)Cl", "GROUP": "active"}
{"COMPOUND": "COc1ccc2nc(-c3ccc(Cl)cc3)cc(-c3nnc(SCC(=O)Nc4ccc(/C(C)=N\\O)cc4)o3)c2c1", "GROUP": "active"}
{"COMPOUND": "N#CC1(C#N)C2=C(CCCC2)NC(c2c(F)cccc2Cl)C1(C#N)C#N (stereo not drawn)", "GROUP": "inactive"}
{"COMPOUND": "COC(=O)c1ccc2c(c1)NC(=O)[C@@H]1CCCN21", "GROUP": "inactive"}
{"COMPOUND": "CN1CCN(/C=C2\\CC(C(=O)NCc3ccc(Cl)cc3Cl)NC2=O)CC1 (stereo not drawn)", "GROUP": "inactive"}
{"COMPOUND": "COc1cc(C2=NNC(c3ccc(N(C)C)cc3)C2)cc(OC)c1OC (stereo not drawn)", "GROUP": "active"}
{"COMPOUND": "C#C[C@@]1(O)[C@@H](CO)O[C@@H](n2cc(F)c3c(N)ncnc32)[C@@H]1O", "GROUP": "active"}
{"COMPOUND": "C1=CC2=CC=C3C=CC=C4C(c5nc6c7ccccc7c7ccccc7c6[nH]5)=CC(=C1)C2C34 (stereo not drawn)", "GROUP": "inactive"}
{"COMPOUND": "C=C(C)[C@@H]1CC[C@]2(C(=O)O)CC[C@]3(C)[C@H](CC[C@@H]4[C@@]5(C)C[C@@H](CC#Cc6ccc(Cl)cc6)C(=O)C(C)(C)[C@@H]5CC[C@]43C)[C@@H]12", "GROUP": "inactive"}
{"COMPOUND": "CCOc1ccc(C2N(c3cc(OC)c(OC)c(OC)c3)C(=O)C2(F)F)cc1 (stereo not drawn)", "GROUP": "active"}
{"COMPOUND": "O=C(CCCCCCCCC(=O)Nc1cccc(C2=NCCN2)c1)Nc1cccc(C2=NCCN2)c1", "GROUP": "inactive"}
{"COMPOUND": "COC(=O)/C=C1\\SC(=Nc2ccc(F)cc2)N(CCc2c[nH]c3ccccc23)C1=O", "GROUP": "inactive"}
{"COMPOUND": "CCCCCCC/C=C/[C@H]1O[C@]23C(=O)C[C@@]4(C[C@@H](OC5OC(CO)C(O)C(O)C5O)C[C@@H]4[C@H]2C=C1C)OC3=O (stereo partly drawn)", "GROUP": "active"}
{"COMPOUND": "CN(C)CCCn1c2c(c3cc(-c4ccco4)ccc3c1=O)C(=O)c1ccccc1-2", "GROUP": "inactive"}
{"COMPOUND": "C=C(C)[C@@H]1CC[C@]2(C(=O)OCCCC[P+](c3ccccc3)(c3ccccc3)c3ccccc3)CC[C@]3(C)[C@H](CC[C@@H]4[C@@]5(C)CC[C@H](OC(=O)C(Cl)Cl)C(C)(C)[C@@H]5CC[C@]43C)[C@@H]12", "GROUP": "active"}
{"COMPOUND": "Cc1c(Cl)cccc1NC(=O)c1sc2nc3c(cc2c1N)CCCCC3", "GROUP": "inactive"}
{"COMPOUND": "Oc1ccccc1-c1nc2c3ccccc3c3ccccc3c2o1", "GROUP": "inactive"}
{"COMPOUND": "Cc1nc2sc(C(=O)Nc3ccccc3Cl)c(N)c2cc1C(C)O (stereo not drawn)", "GROUP": "inactive"}
